test: High Content Imaging Cell-Based qHTS for Inhibitors of the mTORC1 Signaling Pathway in MEF Cells (AID 2667); conditions: series mostly up to 38.3 µM
Inconclusive results are not listed. Active and inactive are the calls of the source. The call rests on the fitted dose curve; in most records, active means well fitted inhibition curve with a large enough effect; inconclusive means small, poorly fitted or top-dose-only effect, or effect the other way; inactive means no such curve, though single readings can be large or run the other way.
Labels: active, inactive

# Compound, Label Value
rows = [
    ("CCCC1(C)C(C#N)(C#N)C1(C#N)C#N", "active"),
    ("O=C(O)CC1CCCc2ccccc2C1O (stereo not given)", "inactive"),
    ("CO/N=C(\\C(=O)N[C@@H]1C(=O)N2C(C(=O)O)=C(COC(C)=O)CS[C@H]12)c1csc(N)n1", "inactive"),
    ("Nc1nc(SCc2ccc([N+](=O)[O-])cc2)c2ncn([C@@H]3O[C@H](CO)[C@@H](O)[C@H]3O)c2n1", "inactive"),
    ("CNc1ncnc2c1ncn2[C@@H]1O[C@H](CO)[C@@H](O)[C@H]1O", "inactive"),
]

---

tested on: CP266; experiment: qHTS profiling for inhibitors of Plasmodium falciparum proliferation (AID 504749); further: nearly all actives have a fitted effect of over 60% in size; conditions: P. falciparum in erythrocytes, SYBR Green DNA, 72 h; series mostly up to 28.7 µM
Inconclusive results are not listed. The source made the active and inactive calls. Calls come from the whole dose curve; as a rule, active = well fitted inhibition curve with a large enough effect; inconclusive = small, poorly fitted or top-dose-only effect; inactive = flat fitted curve, though single readings scatter.
Labels: true (active), false (inactive)

# Compound, Label Value
rows = [
    ("Nc1cc(-c2ccncc2)c[nH]c1=O", "false"),
    ("CN1[C@@H](CC(=O)c2ccccc2)CCC[C@H]1C[C@H](O)c1ccccc1", "false"),
    ("[O-][n+]1ccccc1SSc1cccc[n+]1[O-]", "true"),
    ("Oc1c(Br)cc(Br)c2cccnc12", "false"),
    ("CCCCCCCCCCCCCCCCCC(=O)O", "false"),
    ("CC(C(=O)O)c1ccc2c(c1)[nH]c1ccc(Cl)cc12 (stereo not drawn)", "false"),
    ("O=C(O)c1ccccc1Nc1cccc(C(F)(F)F)c1", "false"),
    ("O=C(/C=C/c1ccccc1)NCCO", "false"),
    ("CC(N)C(=O)OC(C)(C)Cc1ccc(Cl)cc1 (stereo not drawn)", "false"),
    ("COc1ccc(/C=C/C(=O)Nc2ccccc2C(=O)O)cc1OC", "false"),
    ("CCCOC(=O)c1ccc(O)cc1", "false"),
    ("C=CC(N)CCC(=O)O (stereo not drawn)", "false"),
    ("CN(C)c1ccc(C(=C2C=CC(=[N+](C)C)C=C2)c2ccccc2)cc1", "true"),
]

---

assay: qHTS of pediatric cancer cell lines to identify multiple opportunities for drug repurposing: Primary screen for MG 63 (6-TG R) cells (AID 1347105); settings: MG 63 (6-TG R) viability, CellTiter-Glo, 48 h; series mostly up to 46 µM; further: nearly all actives have a fitted effect of over 50% in size
Inconclusive results are not listed. Calls of active or inactive are those of the source. The call rests on the fitted dose curve; in most records, active means well fitted cell-killing curve with a large enough effect; inconclusive means small, poorly fitted or top-dose-only effect; inactive means no such curve, though single readings can be large or run the other way.
Classes used: YES (active), NO (inactive)

# Compound, Label Value
measured = [
    ("CN(C)c1ccc(N=NS(=O)(=O)O)cc1", "NO"),
    ("CCC1C(=O)OCC1Cc1cncn1C (configuration not stated)", "NO"),
    ("Cc1[nH]cnc1CN1CCc2c(c3ccccc3n2C)C1=O", "NO"),
    ("Nc1cc(-c2ccncc2)c[nH]c1=O", "NO"),
    ("Nc1nc2ccc([N+](=O)[O-])cc2s1", "NO"),
    ("O=C(O)c1ccccc1Nc1cccc(C(F)(F)F)c1", "NO"),
    ("CCCSc1ccc2nc(NC(=O)OC)[nH]c2c1", "YES"),
    ("CC(=O)SCC(CC(=O)c1ccc(C)cc1)C(=O)O (configuration not stated)", "NO"),
    ("COC(=O)C1=C(C)NC(C)=C(C(=O)OCC(C)C)C1c1ccccc1[N+](=O)[O-] (configuration not stated)", "NO"),
    ("CNC(=O)c1c(I)c(NC(=O)CCCCC(=O)Nc2c(I)c(C(=O)O)c(I)c(C(=O)NC)c2I)c(I)c(C(=O)O)c1I", "NO"),
    ("CCCCCCCCCCCC(=O)[O][Sn]([CH2]CCC)([CH2]CCC)[O]C(=O)CCCCCCCCCCC", "NO"),
    ("CCCCCCCCCCCCCCCCCC(=O)O", "NO"),
    ("CCCOC(=O)c1ccc(O)cc1", "NO"),
    ("O=C(O)c1cc(O)c(O)c(O)c1", "NO"),
    ("CC(C)OC(=O)c1cc(C(=O)OC(C)C)cc([N+](=O)[O-])c1", "NO"),
    ("Nc1ccc(C(=O)O)c(O)c1", "NO"),
    ("C#CC1(O)CC[C@H]2[C@@H]3CCC4=CCCC[C@@H]4[C@H]3CC[C@@]21C (some centres not stated)", "YES"),
    ("[O-][n+]1ccccc1SSc1cccc[n+]1[O-]", "YES"),
    ("O=C(/C=C/c1ccccc1)NCCO", "NO"),
    ("COc1cc(NC(C)CCCN)c2ncccc2c1 (configuration not stated)", "NO"),
    ("O=c1cc(-c2ccccc2)oc2ccccc12", "NO"),
    ("O=C(OCc1ccccc1)c1ccccc1", "NO"),
    ("CCCCCCCCCCCCOCCO", "NO"),
    ("CN1CC(=O)N/C1=N/C(=O)Nc1cccc(Cl)c1", "NO"),
    ("CCOC(=O)c1ccccc1O", "NO"),
    ("Cc1ccc(C(=O)c2ccc(CC(=O)O)n2C)cc1", "NO"),
    ("CC(C(=O)O)c1ccc(C(=O)c2cccs2)cc1 (configuration not stated)", "NO"),
]
